Recorded values, source ChEMBL document CHEMBL1201862.

- Test system: HCT-15
- Experiment Description: NCI tumour cell line growth inhibition, 48 h
Endpoint: GI50

                                   compound  endpoint  meas_value
0          Cc1ccc(NC(=O)CCc2nnc(S)[nH]2)cc1      GI50       76 µM
1  COC(=O)CCC1(NS(=O)(=O)c2ccc(C)cc2)CCC(C(C)(C)C)CC1 (stereo not given)      GI50     > 10 µM
2                    N=C(N)SCCc1cn2ccccc2n1      GI50    > 100 µM
3  CC(=O)Nc1ccc2c3c(cc(O)c2c1)N(C(=O)CCCCCC(=O)Nc1ccc2c4c(cc(O)c2c1)N(C(=O)OC(C)(C)C)CC4CCl)CC3CCl (stereo not given)      GI50    > 100 µM
4  CS/C(=N\S(=O)(=O)c1ccc(Cl)cc1)NCCCCN/C(=N/S(=O)(=O)c1ccc(Cl)cc1)SC      GI50    > 100 µM

* * *

// GI50 lookup, one value per entry
- Tested on: OVCAR-4
- Experiment Description: NCI tumour cell line growth inhibition, 48 h
The source made the active and inactive calls. No stated cut-off is given here; in the data, active = GI50 up to about 1.1 µM and inactive = higher.
Endpoint: GI50

                                   compound  endpoint           meas_value
0  COc1cc(/C=C2/C(=O)N(C(=O)c3ccccc3O)N=C2C)ccc1O      GI50   1.28 µM (inactive)
1  O=C(CC(=O)N1N=C(N2c3ccccc3Sc3ccccc32)CC1c1ccccc1)Nc1ccc(Cl)cc1 (stereo not drawn)      GI50  > 100 µM (inactive)
2  CC1(C)C2CCC3CC(CCC#N)CCC3C21C#N (stereo not drawn)      GI50  > 100 µM (inactive)

* * *

- System: NCI-H226
- Experiment Description: NCI tumour cell line growth inhibition, 48 h
The source made the active and inactive calls. No stated cut-off is given here; in the data, active = GI50 up to about 1.1 µM and inactive = higher.
Classes used: active, inactive

>>> df
                                    compound  assigned_label
 0  N=C(N)c1ccc(C(NC(=O)CNS(=O)(=O)c2ccc3ccccc3c2)P(=O)(Oc2ccccc2)Oc2ccccc2)cc1 (centres undefined)        inactive
 1  O=[N+]([O-])c1nccn1CC(O)CN1CC1 (centres undefined)        inactive
 2  O=c1oc2ccccc2c(O)c1C(C/C(CCN1CCCC1)=N/O)c1ccccc1 (centres undefined)        inactive
 3  COc1cc(/C=C2/C(=O)N(C(=O)c3ccccc3O)N=C2C)ccc1O          active
 4  O=C1Nc2cc([N+](=O)[O-])ccc2C(=O)N2CCC[C@@H]12        inactive
 5  CCOP(=O)(OCC)/C(=C/n1c(=S)[nH]c2ccccc21)C(=O)OC        inactive
 6  CS/C(=N\C#N)NC1CC(n2cc(C)c(=O)[nH]c2=O)OC1CO (centres undefined)        inactive
 7  COc1cc(C2c3cc4c(cc3OC(NNc3ccccc3)C2C)OCO4)cc(OC)c1OC (centres undefined)        inactive
 8  O=C(Nc1sccc1S(=O)(=O)c1ccc(Cl)cc1)c1ccccc1        inactive
 9             Sc1nnc(COc2ccc(Cl)cc2Cl)[nH]1        inactive
10  COc1ccc2c(c1)C1Oc3ccccc3CC1(O)CO2 (centres undefined)        inactive
11  O=C(/C=C/c1ccc([N+](=O)[O-])cc1)N1CCN(CCOC(c2ccc(F)cc2)c2ccc(F)cc2)CC1        inactive
12               O=CC(I)=C(c1ccccc1)c1ccccc1        inactive
13                    CCN(CC)CCC(=O)c1ccccc1        inactive
14  O=C(c1ccc(Cl)cc1)N(C(=S)N1CCN(c2ccccc2)CC1)c1ccccc1        inactive
15                       CC(=O)CC[N+](C)(C)C        inactive
16         O=C(O)CCCNc1ncc2c(n1)-c1ccccc1OC2        inactive
17    CCOC(=O)/C(=C\c1ccccc1)C(=O)CCN1CCOCC1        inactive
18                  CCCCNc1nc(O)c2[nH]cnc2n1        inactive
19               O=C(/C=N/O)Nc1ccc(Cl)c(I)c1          active
20  CC1C2(C)OCC(C#N)(C(=N)O2)C1(C#N)C#N (centres undefined)        inactive
21            Cc1cccc(NC(=S)Nc2ccc(Cl)cc2)n1        inactive
22   C/C(CCn1[nH]c(=O)ccc1=O)=N\OCCCc1ccccc1        inactive
23      C#CC[C@]12CC(=O)CC[C@H]1CC1(C2)OCCO1        inactive

* * *

- System: SF-268
- Experiment Description: NCI tumour cell line growth inhibition, 48 h
Calls of active or inactive are those of the source. No stated cut-off is given here; in the data, active = GI50 up to about 1.1 µM and inactive = higher.
// GI50 lookup, one value per entry

Compound	GI50
COc1ccc(Nc2nc(N)c(C(=O)c3ccco3)s2)cc1	39.3 µM (inactive)
c1ccc(C2CC(c3ccc4ccccc4c3)=Nc3ccccc3S2)cc1 (centres undefined)	17 µM (inactive)
COc1ccc(N2C(=O)C3c4[nH]c5c(C)cccc5c4C4CCC(C(C)(C)C)CC4C3C2=O)cc1 (centres undefined)	5.61 µM (inactive)
Cc1ccc(NC(=O)/C(Cc2nc3ccc([N+](=O)[O-])cc3nc2O)=N\NC(=O)C[n+]2ccccc2)c(C)c1	67.5 µM (inactive)
Oc1ccc(-c2ccccc2)nn1	> 100 µM (inactive)
COc1ccc(CNc2nc(NCc3ccc(OC)cc3)nc(Nc3ccccc3)n2)cc1	> 100 µM (inactive)
CN1C(=O)c2ccc3ccccc3c2C1=O	> 100 µM (inactive)
CN(C)CC[N+](C)(C)[BH2-]C(O)O	> 100 µM (inactive)
COC(=O)C(CCSC)NC(=O)CNC(=O)CSc1nnc(COc2ccc(Cl)cc2)n1-c1ccccc1 (centres undefined)	17.1 µM (inactive)
COC(=O)c1ccccc1C1CN=NC12Cc1cccc(C)c1C2=O (centres undefined)	61.4 µM (inactive)
COc1c2cc(C(C)(C)C)cc1Cc1cccc(c1OCc1cccc([N+](=O)[O-])c1)Cc1cc(C(C)(C)C)cc(c1OC)Cc1cccc(c1OCc1cccc([N+](=O)[O-])c1)Cc1cc(C(C)(C)C)cc(c1OC)Cc1cccc(c1OCc1cccc([N+](=O)[O-])c1)C2	> 50 µM (inactive)
O=C(c1ccc(Cl)cc1)N(C(=S)N1CCN(c2ccccc2)CC1)c1ccccc1	> 100 µM (inactive)
O=C1CC2CCCCC2=C1O (centres undefined)	> 100 µM (inactive)
C#CC1(O)CC(c2ccccc2)N(C)C(c2ccccc2)C1 (centres undefined)	> 100 µM (inactive)
O=C(Nc1ccc(Cl)cc1Cl)C1C(=O)N(c2ccc(Cl)cc2Cl)C(=O)/C1=N\Nc1ccc([N+](=O)[O-])cc1[N+](=O)[O-] (centres undefined)	22.3 µM (inactive)
Cc1cc(C)nc(NS(=O)(=O)c2ccc(NC(=O)c3cccc4c(Nc5ccc(S(=O)(=O)Nc6nc(C)cc(C)n6)cc5)c5ccccc5nc34)cc2)n1	12.9 µM (inactive)
CN1CN(c2ccccc2)C2(CCN(CCc3csc4ccccc34)CC2)C1=O	28.8 µM (inactive)
COc1cc(CNc2ccc(C(C)C)cc2)cc(OC)c1OC	54.7 µM (inactive)
O=C1/C(=C/c2ccc([N+](=O)[O-])cc2)CNC/C1=C\c1ccc([N+](=O)[O-])cc1	1.65 µM (inactive)

* * *

// GI50 lookup, one value per entry
- Test system: HOP-18
- Experiment Description: NCI tumour cell line growth inhibition, 48 h
Activity calls are given as the source filed them. Rule as the data show it: active = GI50 up to about 1.1 µM and inactive = higher.
Endpoint: GI50

>>> print(df.to_string())
                                   compound           meas_value
0  CC(=O)C1=C(O)C(N)C2Cc3c(c(O)c4c(O)c(C)ccc4c3C)C(=O)C2(O)C1=O (stereo not given)   2.93 µM (inactive)
1  Cc1ccc(S(=O)(=O)N/N=c2\c(C)c(C3=NS(=O)(=O)c4cc(S(N)(=O)=O)c(Cl)cc4N3)oc3c(Cl)cc(Cl)cc23)cc1   45.3 µM (inactive)
2  CCN(CC)CCNc1ccc2ncn3c4ccc(OC)cc4c(=O)c1c23     17 µM (inactive)
3  O=C(CCN1CCN(c2cccc(Cl)c2)CC1)N1CCc2c([nH]c3ccccc23)C1c1cccnc1 (stereo not given)   12.8 µM (inactive)
4                c1ccc2c(c1)oc1ccc3nsnc3c12  > 100 µM (inactive)
5         COc1ccc2nc(-c3ccc(O)cc3)cc(O)c2c1   4.78 µM (inactive)
6  COC(=O)C1C2C=CC(C2)N1[C@@H](C)c1ccccc1 (stereo not given in full)  > 100 µM (inactive)
7                    N=C(N)SCCc1cn2ccccc2n1  > 100 µM (inactive)
8        Nc1ccccc1C(=O)CCC1C(=O)NC(=S)NC1=O  > 100 µM (inactive)
9  Cc1cc(C)nc(NS(=O)(=O)c2ccc(NC(=O)c3cccc4c(Nc5ccc(S(=O)(=O)Nc6nc(C)cc(C)n6)cc5)c5ccccc5nc34)cc2)n1   12.2 µM (inactive)
